System: NCI/ADR-RES ovarian
EXPERIMENT: NCI tumour cell line growth inhibition, 48 h
READOUT TYPE: TGI

[
  {
    "COMPOUND": "COc1cc(/C=N/n2c(-c3ccccc3)nn(C(C)=O)c2=O)cc(OC)c1OC",
    "TGI": "> 42.6 µM"
  },
  {
    "COMPOUND": "CC1(C)OC(=O)N(c2ccccc2)C12C=Cc1cccc([N+](=O)[O-])c1O2 (stereo not drawn)",
    "TGI": "> 100 µM"
  },
  {
    "COMPOUND": "COC(=O)C1(C#N)C(C)(C)N=C(c2ccccc2)C12CCCCC2 (stereo not drawn)",
    "TGI": "> 100 µM"
  }
]

Input line: What TGI appears in the records for this compound with NCI/ADR-RES ovarian? `C#CCSc1cc(Cl)c(C)cc1S(=O)(=O)Nc1nc2ccccc2o1`
Output line: > 100 µM

Input line: Query for NCI/ADR-RES ovarian: what TGI does the record show for C=C1CCC2C3(C)COC(c4ccccc4)OC3CCC2(C)C1/C=C/C1=CCOC1=O (stereo not drawn) ?
Output line: > 100 µM

Input line: Which measured TGI belongs to COC(=O)C(Cc1c[nH]c2ccccc12)NC(=O)c1ccc(-c2ccc(Cl)cc2Cl)o1 (stereo not drawn) , tested on NCI/ADR-RES ovarian?
Output line: > 100 µM

Input line: Value wanted: TGI (NCI/ADR-RES ovarian) of entry CCC(=O)Nc1ccc(NC(C#N)c2cccc(Oc3ccccc3)c2)cc1 (stereo not drawn)
Output line: > 100 µM

Input line: Provide value of TGI for this record tested with NCI/ADR-RES ovarian: `CC(=O)C1=C(O)C=C2Oc3c(C(=O)/C=C/c4c(Cl)cccc4Cl)c(O)c(C)c(O)c3[C@]2(C)C1=O`
Output line: 5.21 µM

* * *

Test system: EKVX NSCLC
EXPERIMENT: NCI tumour cell line growth inhibition, 48 h; in the data active = GI50 below about 0.43 µM; inactive = the rest
Use one of these outcomes when replying: Y (active), N (inactive)

Input line: Answer briefly: the call reported for `Cc1nc(-c2cn3c(n2)-c2ccc(-c4cnn(C(C)(C)C(N)=O)c4)cc2OCC3)n(C(C)C)n1` in this assay.
Output line: N

* * *

Tested on: UO-31 renal
EXPERIMENT: NCI tumour cell line growth inhibition, 48 h
Listed here are molecules together with their documented GI50.

Record excerpt, results attached:
[
  {
    "MOLECULE": "O=C(Nc1ccncc1)C(=O)c1cn(S(=O)(=O)c2ccc(Cl)cc2)c2ccccc12",
    "EXPERIMENTAL TARGET": "UO-31 renal",
    "READOUT TYPE": "GI50",
    "RESULT": "9.18 µM"
  },
  {
    "MOLECULE": "NCCCCCCCn1c2c(c3ccccc3c1=O)C(=O)c1ccccc1-2",
    "EXPERIMENTAL TARGET": "UO-31 renal",
    "READOUT TYPE": "GI50",
    "RESULT": "1.29 µM"
  },
  {
    "MOLECULE": "CCN(CC)c1ccc(C(O)C2=CC(=O)c3ccccc3C2=O)cc1 (stereo unspecified)",
    "EXPERIMENTAL TARGET": "UO-31 renal",
    "READOUT TYPE": "GI50",
    "RESULT": "2.12 µM"
  },
  {
    "MOLECULE": "Cc1cc(N2CCOCC2)nc(N[C@@H]2CCC[C@H](Nc3ccnc4cc(Cl)ccc34)C2)n1",
    "EXPERIMENTAL TARGET": "UO-31 renal",
    "READOUT TYPE": "GI50",
    "RESULT": "1.29 µM"
  },
  {
    "MOLECULE": "CS(=O)(=O)CCc1cccc(C(=O)c2cnn(-c3ccc(F)cc3)c2N)c1",
    "EXPERIMENTAL TARGET": "UO-31 renal",
    "READOUT TYPE": "GI50",
    "RESULT": "> 25 µM"
  }
]

From here, focus on the item given below.
Input line: Give recorded GI50 with UO-31 renal for the following molecule: `CC(C)=CCC[C@](C)(O)[C@H]1CC[C@]2(C)[C@@H]1CC[C@@H]1[C@@]3(C)CC/C(=N/O)C(C)(C)[C@@H]3CC[C@]12C`
Output line: 16.9 µM
